Measured on: human GABAA α1β3γ2 receptor (Homo sapiens (Human), UniProt P14867+P18507)
Protocol description: Radioligand binding assay for γ2-containing GABAA subtypes, [3H]Flumazenil competition (α1β3γ2)
Settings: read-out: Ki h-GABAA α1β3γ2; Table 3, reference compounds
Below is a list of entries, each paired with its recorded Ki value.
Measure: Ki (µM)

{"columns": ["Molecule smiles", "Measure", "Measure unit", "Value measured"],
 "data": [
  ["CN(C)C(=O)c1nc2n(n1)-c1ccc(Cl)c(Cl)c1C(c1c(F)cccc1F)=NC2", "Ki", "µM", 0.989],
  ["[2H]C([2H])([2H])N(C(=O)c1nc2n(n1)-c1ccc(Cl)c(Cl)c1C(c1c(F)cccc1F)=N[C@H]2C)C([2H])([2H])[2H]", "Ki", "µM", 2.65]
]}

* * *

Below is a list of entries, each paired with its recorded Ki value.
Measured on: human GABAA α2β2γ1 receptor (Homo sapiens (Human), UniProt P47869+Q8N1C3)
Protocol description: Radioligand binding assay for γ1-containing GABAA subtypes, [3H]RO7239181 competition (α2β2γ1)
Settings: Ki h-GABAA α2β2γ1, displacement of [3H]RO7239181, membranes of HEK293F cells expressing human receptors, means of two determinations
Measure: Ki (nM)

{"columns": ["Molecule smiles", "Measure", "Value measured"],
 "data": [
  ["C[C@@H]1N=C(c2c(F)cccc2F)c2c(ccc(Cl)c2Cl)-n2nc(N3CCCC3=O)nc21", "Ki", 4.5],
  ["Cc1nc2n(n1)-c1ccc(Cl)c(Cl)c1C(c1c(F)cccc1F)=N[C@H]2C", "Ki", 4.43],
  ["C[C@@H]1N=C(c2c(F)cccc2F)c2c(ccc(Cl)c2Cl)-n2nc(C3CC3)nc21", "Ki", 15.7],
  ["C[C@@H]1N=C(c2c(F)cccc2F)c2c(ccc(Cl)c2Cl)-n2nc(C(=O)N3CC[C@H](O)C3)nc21", "Ki", 4.75],
  ["C[C@@H]1N=C(c2c(F)cccc2F)c2c(ccc(Cl)c2Cl)-n2nc(C(=O)N3CC4(CCCCO4)C3)nc21", "Ki", 6.42],
  ["C[C@@H]1N=C(c2c(F)cccc2F)c2c(ccc(C(F)(F)F)c2Cl)-n2nc(NC(=O)N3CC(F)C3)nc21", "Ki", 34.9],
  ["C[C@@H]1N=C(c2ncccc2F)c2c(ccc(C(F)(F)F)c2Cl)-n2nc(C(=O)N3CC4(CCO4)C3)nc21", "Ki", 80.9]
]}

* * *

Measured on: human GABAA α1β3γ2 receptor (Homo sapiens (Human), UniProt P14867+P18507)
Protocol description: Radioligand binding assay for γ2-containing GABAA subtypes, [3H]Flumazenil competition (α1β3γ2)

{"columns": ["Molecule", "Bound sign", "Ki, nM"],
 "data": [
  ["C[C@@H]1N=C(c2ncccc2F)c2c(ccc(Br)c2Cl)-n2nc(C(=O)N3CCC3)nc21", "=", 1310],
  ["CO[C@@H]1CCN(C(=O)c2nc3n(n2)-c2ccc(Cl)c(Cl)c2C(c2c(F)cccc2F)=N[C@H]3C)C1", "=", 867],
  ["Fc1cccc(F)c1C1=NCc2nc(C(F)F)nn2-c2ccc(Cl)c(Cl)c21", "=", 659],
  ["C[C@H](O)CNC(=O)c1nc2n(n1)-c1ccc(Cl)c(Cl)c1C(c1c(F)cccc1F)=N[C@H]2C", "=", 606],
  ["C[C@@H]1N=C(c2c(F)cccc2F)c2c(ccc(Cl)c2Cl)-n2nc(S(C)(=O)=O)nc21", "=", 2130],
  ["CC1CN(C(=O)c2nc3n(n2)-c2ccc(C(F)(F)F)c(Cl)c2C(c2ncccc2F)=N[C@H]3C)C1", ">", 30000],
  ["C[C@@H]1N=C(c2ncccc2F)c2c(ccc(C(F)(F)F)c2Cl)-n2nc(N3CCOC3=O)nc21", "=", 12600],
  ["CNC(=O)Nc1nc2n(n1)-c1ccc(C(F)(F)F)c(Cl)c1C(c1c(F)cccc1F)=N[C@H]2C", "=", 3350],
  ["C[C@@H]1N=C(c2c(F)cccc2F)c2c(ccc(Cl)c2Cl)-n2nc(C(=O)N3CC4(CCCO4)C3)nc21", "=", 688],
  ["CCOC(=O)c1nc2n(n1)-c1ccc(Cl)cc1C(c1ccccc1F)=NC2 [RE-B, reference compound]", "=", 3.4],
  ["C[C@@H]1N=C(c2c(F)cccc2F)c2c(ccc(Cl)c2Cl)-n2nc(C(=O)N3CC(C(F)F)C3)nc21", "=", 737],
  ["OCc1cn2c(n1)CN=C(c1c(F)cccc1F)c1c-2ccc(Br)c1Cl", "=", 216],
  ["COCc1nc2n(n1)-c1ccc(Cl)c(Cl)c1C(c1c(F)cccc1F)=N[C@H]2C", "=", 707],
  ["C[C@@H]1N=C(c2c(F)cccc2F)c2c(ccc(Cl)c2Cl)-n2nc(N3CCS(=O)(=O)CC3)nc21", "=", 578],
  ["C[C@@H]1N=C(c2c(F)cccc2F)c2c(ccc(C(F)(F)F)c2Cl)-n2nc(NC(=O)NC3CC3)nc21", "=", 4600],
  ["COCCNC(=O)c1nc2n(n1)-c1ccc(Cl)c(Cl)c1C(c1c(F)cccc1F)=N[C@H]2C", "=", 578],
  ["C[C@@H]1N=C(c2c(F)cccc2F)c2c(ccc(C(F)(F)F)c2Cl)-n2nc(C(=O)NN(C)C)nc21", "=", 5510],
  ["C[C@@H]1N=C(c2c(F)cccc2F)c2c(ccc(Cl)c2Cl)-n2nc(S(N)(=O)=O)nc21", "=", 1150],
  ["Cc1nc2n(n1)-c1ccc(Cl)c(Cl)c1C(c1c(F)cccc1F)=N[C@H]2C", "=", 244],
  ["CN(C)C(=O)c1nc2n(n1)-c1ccc(Cl)c(Cl)c1C(c1c(F)cccc1F)=NC2", "=", 989],
  ["C[C@@H]1N=C(c2c(F)cccc2F)c2c(ccc(Cl)c2Cl)-n2nc(N3CC(O)C3)nc21", "=", 241],
  ["C[C@@H]1N=C(c2c(F)cccc2F)c2c(ccc(Cl)c2Cl)-n2nc(C(=O)N3CC4(CCOCC4)C3)nc21", "=", 1550],
  ["C[C@@H]1N=C(c2c(F)cccc2F)c2c(ccc(Cl)c2Cl)-n2nc(C(=O)N3CC[C@H](O)C3)nc21", "=", 837],
  ["C[C@@H]1N=C(c2ncccc2F)c2c(ccc(C(F)(F)F)c2Cl)-n2cc(C(=O)NC[C@@H](C)O)nc21", "=", 11100],
  ["C[C@@H]1N=C(c2c(F)cccc2F)c2c(ccc(Cl)c2Cl)-n2nc(C(=O)N3CC4(CCCCO4)C3)nc21", "=", 933],
  ["COC1CN(C(=O)c2nc3n(n2)-c2ccc(Cl)c(Cl)c2C(c2c(F)cccc2F)=NC3)C1", "=", 451],
  ["C[C@@H]1N=C(c2c(F)cccc2F)c2c(ccc(C(F)(F)F)c2Cl)-n2nc(C(=O)NCCO)nc21", "=", 3700],
  ["C[C@@H]1N=C(c2ncccc2F)c2c(ccc(C(F)(F)F)c2Cl)-n2cc(C(=O)NCCO)nc21", "=", 12200],
  ["C[C@@H]1N=C(c2c(F)cccc2F)c2c(ccc(C(F)(F)F)c2Cl)-n2ccnc21", "=", 758],
  ["C[C@@H]1N=C(c2c(F)cccc2F)c2c(ccc(Cl)c2Cl)-n2nc(C(=O)N3CC(C#N)C3)nc21", "=", 389]
]}

* * *

Measured on: human GABAA α1β3γ2 receptor (Homo sapiens (Human), UniProt P14867+P18507)
Protocol description: Radioligand binding assay for γ2-containing GABAA subtypes, [3H]Flumazenil competition (α1β3γ2)
Settings: Log[Ki α1β3γ2 (nM)/Ki α2β2γ1 (nM)]

{"columns": ["Molecule smiles", "LogSel"],
 "data": [
  ["CC1CN(C(=O)c2nc3n(n2)-c2ccc(Cl)c(Cl)c2C(c2ncccc2F)=N[C@H]3C)C1", 1.78],
  ["C[C@@H]1N=C(c2c(F)cccc2F)c2c(ccc(C(F)(F)F)c2Cl)-n2nc(C(=O)NCCO)nc21", 2.50],
  ["C[C@@H]1N=C(c2c(F)cccc2F)c2c(ccc(C(F)(F)F)c2Cl)-n2nc(C(=O)NCCF)nc21", 2.27],
  ["C[C@@H]1N=C(c2c(F)cccc2F)c2c(ccc(Cl)c2Cl)-n2nc(C(N)=O)nc21", 2.08],
  ["COC1CN(C(=O)Nc2nc3n(n2)-c2ccc(C(F)(F)F)c(Cl)c2C(c2c(F)cccc2F)=N[C@H]3C)C1", 1.98],
  ["CCNC(=O)c1nc2n(n1)-c1ccc(Cl)c(Cl)c1C(c1c(F)cccc1F)=N[C@H]2C", 2.22],
  ["OCc1cn2c(n1)CN=C(c1c(F)cccc1F)c1c-2ccc(Br)c1Cl", 1.39],
  ["C[C@@H]1N=C(c2c(F)cccc2F)c2c(ccc(Cl)c2Cl)-n2cc(C(=O)N3CC(C#N)C3)nc21", 1.52],
  ["CO[C@H]1CCN(C(=O)c2nc3n(n2)-c2ccc(Cl)c(Cl)c2C(c2ncccc2F)=N[C@H]3C)C1", 1.96],
  ["Cc1cnc2n1-c1ccc(Cl)c(Cl)c1C(c1c(F)cccc1F)=N[C@H]2C", 1.66],
  ["C[C@@H]1N=C(c2c(F)cccc2F)c2c(ccc(Cl)c2Cl)-n2nc(C(F)F)nc21", 1.57],
  ["C[C@@H]1N=C(c2ncccc2F)c2c(ccc(Cl)c2Cl)-n2nc(C(=O)N3CC(O)C3)nc21", 2.41],
  ["C[C@@H]1N=C(c2c(F)cccc2F)c2c(ccc(Cl)c2Cl)-n2nc(NC(=O)N3CC(F)C3)nc21", 1.67],
  ["C[C@@H]1N=C(c2c(F)cccc2F)c2c(ccc(Cl)c2Cl)-n2nc(CO)nc21", 2.15],
  ["C[C@@H]1N=C(c2c(F)cccc2F)c2c(ccc(Cl)c2Cl)-n2nc(C(=O)NCC#N)nc21", 1.97],
  ["C[C@@H]1N=C(c2c(F)cccc2F)c2c(ccc(Cl)c2Cl)-n2nc(C(=O)N3CC(C#N)C3)nc21", 2.07],
  ["C[C@@H]1N=C(c2ncccc2F)c2c(ccc(C(F)(F)F)c2Cl)-n2nc(C(=O)N3CCC3)nc21", 2.16],
  ["CNC(=O)Nc1nc2n(n1)-c1ccc(C(F)(F)F)c(Cl)c1C(c1c(F)cccc1F)=N[C@H]2C", 2.75],
  ["C[C@@H]1N=C(c2c(F)cccc2F)c2c(ccc(C(F)(F)F)c2Cl)-n2nc(NC(=O)NC3COC3)nc21", 2.41],
  ["C[C@@H]1N=C(c2ncccc2F)c2c(ccc(C(F)(F)F)c2Cl)-n2nc(C(=O)N3CCS(=O)(=O)CC3)nc21", 2.74],
  ["C[C@@H]1N=C(c2c(F)cccc2F)c2c(ccc(Cl)c2Cl)-n2nc(C(=O)NC3(C#N)CC3)nc21", 2.15],
  ["C[C@@H]1N=C(c2ncccc2F)c2c(ccc(Cl)c2Cl)-n2nc(C(=O)N3CC4(CCOCC4)C3)nc21", 2.30],
  ["C[C@@H]1N=C(c2ncccc2F)c2c(ccc(C(F)(F)F)c2Cl)-n2cc(C(=O)NC[C@@H](C)O)nc21", 2.27],
  ["Cc1nc2n(n1)-c1ccc(Cl)c(Cl)c1C(c1c(F)cccc1F)=N[C@H]2C", 1.74],
  ["C[C@@H]1N=C(c2ncccc2F)c2c(ccc(C(F)(F)F)c2Cl)-n2nc(NC(=O)NC3COC3)nc21", 2.56],
  ["C[C@@H]1N=C(c2c(F)cccc2F)c2c(ccc(C(F)(F)F)c2Cl)-n2nc(C(=O)NN(C)C)nc21", 2.44],
  ["[2H]C([2H])([2H])OC1CN(C(=O)c2nc3n(n2)-c2ccc(C(F)(F)F)c(Cl)c2C(c2ncccc2F)=N[C@H]3C)C1", 2.23],
  ["C[C@@H]1N=C(c2ncccc2F)c2c(ccc(Cl)c2Cl)-n2nc(C(=O)N3CC4(CCCCO4)C3)nc21", 2.36],
  ["C[C@@H]1N=C(c2ncccc2F)c2c(ccc(Cl)c2Cl)-n2nc(C(=O)N3CC4(COC4)C3)nc21", 2.15],
  ["C[C@@H]1N=C(c2ncccc2F)c2c(ccc(C(F)(F)F)c2Cl)-n2cc(C(=O)NCCO)nc21", 2.34]
]}
